methodSummary: in vivo
cond: rat, po, read-out: Acute toxicity LD 50

molecule	LD50 at 168 h, mg/kg
CC(C)Cc1cccc2c(C(C)C(=O)O)cccc12 (centres unmarked) [Derivative 2, 2-[5-isobutyl-1-naphthyl]propionic acid]	130
CC(C)Cc1cccc2c(CC(=O)O)cccc12 [Derivative 1, [5-isobutyl-1-naphthyl]acetic acid]	600

---

methodSummary: Ulcerogenic activity (Robert & Nezamis, modified by Lwoff)
Set-up: species or system rats of Ch. River strain
cond: rat, in vivo; rats, oral, 6 hours; dose giving ulceration index 150; dosages in method 50-800 mg/kg; read-out: Ulcerogenic activity UD 50

molecule	TD50 at 6 h, mg/kg
COc1ccc2cc([C@H](C)C(=O)O)ccc2c1 [naproxen, reference compound]	43
